- Target Of Assay: Trypsin (Sus scrofa, UniProt P00761)
- Construct: purchased Promega Corporation V511
- Sequence (P00761 9-231): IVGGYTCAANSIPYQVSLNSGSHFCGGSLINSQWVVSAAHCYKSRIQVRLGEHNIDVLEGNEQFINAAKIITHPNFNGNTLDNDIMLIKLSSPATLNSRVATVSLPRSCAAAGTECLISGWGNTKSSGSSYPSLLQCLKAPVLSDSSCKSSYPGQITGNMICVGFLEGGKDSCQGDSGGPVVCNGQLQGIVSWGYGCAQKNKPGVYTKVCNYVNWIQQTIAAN
- Assay Text: Trypsin cleavage of C-terminal quantification tag -SA-nitroTyr-G from peptides, LC-MS with UV detection at 350 nm
- Type: biochemical
- Experimental Parameters: after reduction and alkylation, trypsin enzyme/substrate 1:50 over night at RT
Square brackets hold non-standard residues; d marks the D form. Peptide text beside a SMILES is read from it. Tyr(3-NO2) = N[C@@H](Cc1ccc(O)c([N+](=O)[O-])c1)C(=O)O
Endpoint Label: Percent Cleavage of Tag [by UV at 350 nm] (%)
Numeric only. Scale: %

Form entry - test system: Trypsin (Sus scrofa, UniProt P00761); read-out: Percent Cleavage of Tag [by UV at 350 nm]; compound: CC[C@H](C)[C@H](NC(=O)[C@H](Cc1ccccc1)NC(=O)[C@H](Cc1ccc(O)cc1)NC(=O)[C@H](Cc1c[nH]cn1)NC(=O)[C@@H](NC(=O)[C@H](Cc1ccc(O)cc1)NC(=O)[C@H](CCCCN)NC(=O)CNC(=O)[C@H](CO)NC(=O)[C@H](Cc1ccc(O)c([N+](=O)[O-])c1)NC(C)=O)[C@@H](C)O)C(=O)N[C@@H](CC(=O)O)C(=O)N[C@@H](CC(C)C)C(=O)N[C@@H](CC(N)=O)C(=O)N[C@@H](CCCCN)C(=O)O [Peptide 20, Ac-nitroTyr-SGKYTHYFIDLN-K-OH] (Ac-[Tyr(3-NO2)]SGKYTHYFIDLNK-OH)
74.7

====

- Target Of Assay: Trypsin (Sus scrofa)
- Construct: purchased Promega Corporation V511
- Assay Text: Trypsin cleavage of C-terminal quantification tag -SA-nitroTyr-G from peptides, LC-MS with UV detection at 350 nm
- Format: biochemical
- Experimental Parameters: after reduction and alkylation, trypsin enzyme/substrate 1:50 over night at RT
Square brackets hold non-standard residues; d marks the D form. Peptide text beside a SMILES is read from it. Tyr(3-NO2) = N[C@@H](Cc1ccc(O)c([N+](=O)[O-])c1)C(=O)O
Endpoint Label: Percent Cleavage of Tag [by UV at 350 nm] (%)
Give just the numeric value; % need not be written.

Looking for the measured Percent Cleavage of Tag [by UV at 350 nm] of CC[C@H](C)[C@H](NC(=O)[C@H](Cc1ccccc1)NC(=O)[C@H](Cc1ccc(O)cc1)NC(=O)[C@H](Cc1c[nH]cn1)NC(=O)[C@@H](NC(=O)[C@@H]1CCCN1C(=O)[C@H](CCCCN)NC(=O)CNC(=O)[C@H](CO)NC(=O)[C@H](Cc1ccc(O)c([N+](=O)[O-])c1)NC(C)=O)[C@@H](C)O)C(=O)N[C@@H](CC(=O)O)C(=O)N[C@@H](CC(C)C)C(=O)N[C@@H](CC(N)=O)C(=O)N[C@@H](CCCCN)C(=O)O [Peptide 13, Ac-nitroTyr-SGKPTHYFIDLN-K-OH] (Ac-[Tyr(3-NO2)]SGKPTHYFIDLNK-OH) , can you help?
99.4

Would you kindly repeat that for CC(=O)N[C@@H](Cc1ccc(O)c([N+](=O)[O-])c1)C(=O)N[C@@H](CO)C(=O)NCC(=O)N[C@@H](CCCCN)C(=O)N[C@@H](CC(=O)O)C(=O)N[C@H](C(=O)N[C@@H](C)C(=O)N[C@@H](CC(C)C)C(=O)N[C@@H](CO)C(=O)N[C@@H](CC(C)C)C(=O)N[C@@H](CC(=O)O)C(=O)N[C@@H](CC(=O)O)C(=O)N[C@H](C(=O)N[C@@H](CCCCN)C(=O)O)C(C)C)C(C)C [Peptide 23, Ac-nitroTyr-SGKDVALSLDDV-K-OH] (Ac-[Tyr(3-NO2)]SGKDVALSLDDVK-OH) ?
100

What do you have for CC[C@H](C)[C@H](NC(=O)[C@H](Cc1ccccc1)NC(=O)[C@H](Cc1ccc(O)cc1)NC(=O)[C@H](Cc1c[nH]cn1)NC(=O)[C@@H](NC(=O)[C@H](CCCNC(=N)N)NC(=O)[C@H](CCCCN)NC(=O)CNC(=O)[C@H](CO)NC(=O)[C@H](Cc1ccc(O)c([N+](=O)[O-])c1)NC(C)=O)[C@@H](C)O)C(=O)N[C@@H](CC(=O)O)C(=O)N[C@@H](CC(C)C)C(=O)N[C@@H](CC(N)=O)C(=O)N[C@@H](CCCCN)C(=O)O [Peptide 15, Ac-nitroTyr-SGKRTHYFIDLN-K-OH] (Ac-[Tyr(3-NO2)]SGKRTHYFIDLNK-OH) ?
100

What would you report for CC[C@H](C)[C@H](NC(=O)[C@H](Cc1ccccc1)NC(=O)[C@H](Cc1ccc(O)cc1)NC(=O)[C@H](Cc1c[nH]cn1)NC(=O)[C@@H](NC(=O)[C@@H](NC(=O)[C@H](CCCCN)NC(=O)CNC(=O)[C@H](CO)NC(=O)[C@H](Cc1ccc(O)c([N+](=O)[O-])c1)NC(C)=O)[C@@H](C)CC)[C@@H](C)O)C(=O)N[C@@H](CC(=O)O)C(=O)N[C@@H](CC(C)C)C(=O)N[C@@H](CC(N)=O)C(=O)N[C@@H](CCCCN)C(=O)O [Peptide 8, Ac-nitroTyr-SGKITHYFIDLN-K-OH] (Ac-[Tyr(3-NO2)]SGKITHYFIDLNK-OH) ?
100

====

- Target Of Assay: Trypsin (Sus scrofa, UniProt P00761)
- Construct: purchased Promega Corporation V511
- Assay Text: Trypsin cleavage of C-terminal quantification tag -SA-nitroTyr-G from peptides, LC-MS with UV detection at 350 nm
- Format: biochemical
- Experimental Parameters: after reduction and alkylation, trypsin enzyme/substrate 1:50 over night at RT
Square brackets hold non-standard residues; d marks the D form. Peptide text beside a SMILES is read from it. Tyr(3-NO2) = N[C@@H](Cc1ccc(O)c([N+](=O)[O-])c1)C(=O)O
Documented Percent Cleavage of Tag [by UV at 350 nm] across a set of molecules
Note: unit % is implicit; provide only the numeric part.

INSERT INTO measurements (molecule, unit_symbol, value_observed) VALUES
  ('CC[C@H](C)[C@H](NC(=O)[C@H](Cc1ccccc1)NC(=O)[C@H](Cc1ccc(O)cc1)NC(=O)[C@H](Cc1c[nH]cn1)NC(=O)[C@@H](NC(=O)[C@H](Cc1ccccc1)NC(=O)[C@H](CCCCN)NC(=O)CNC(=O)[C@H](CO)NC(=O)[C@H](Cc1ccc(O)c([N+](=O)[O-])c1)NC(C)=O)[C@@H](C)O)C(=O)N[C@@H](CC(=O)O)C(=O)N[C@@H](CC(C)C)C(=O)N[C@@H](CC(N)=O)C(=O)N[C@@H](CCCCN)C(=O)O [Peptide 5, Ac-nitroTyr-SGKFTHYFIDLN-K-OH] (Ac-[Tyr(3-NO2)]SGKFTHYFIDLNK-OH)', '%', 100);

// switching to the query molecule
Any idea what Percent Cleavage of Tag [by UV at 350 nm] was measured for CC[C@H](C)[C@H](NC(=O)[C@H](Cc1ccccc1)NC(=O)[C@H](Cc1ccc(O)cc1)NC(=O)[C@H](Cc1c[nH]cn1)NC(=O)[C@@H](NC(=O)[C@H](Cc1c[nH]c2ccccc12)NC(=O)[C@H](CCCCN)NC(=O)CNC(=O)[C@H](CO)NC(=O)[C@H](Cc1ccc(O)c([N+](=O)[O-])c1)NC(C)=O)[C@@H](C)O)C(=O)N[C@@H](CC(=O)O)C(=O)N[C@@H](CC(C)C)C(=O)N[C@@H](CC(N)=O)C(=O)N[C@@H](CCCCN)C(=O)O [Peptide 19, Ac-nitroTyr-SGKWTHYFIDLN-K-OH] (Ac-[Tyr(3-NO2)]SGKWTHYFIDLNK-OH) ?
100

====

- Target Of Assay: Trypsin (Sus scrofa, UniProt P00761)
- Construct: purchased Promega Corporation V511
- Assay Text: Trypsin cleavage of N-terminal quantification tag Ac-nitroTyr-SGK- from peptides, LC-MS with UV detection at 350 nm
- Type: biochemical
- Experimental Parameters: trypsin protocol of example 9, 24 h, RT
Square brackets hold non-standard residues; d marks the D form. Peptide text beside a SMILES is read from it. Tyr(3-NO2) = N[C@@H](Cc1ccc(O)c([N+](=O)[O-])c1)C(=O)O
Endpoint Label: Kusebauch 24 h, RT: Percent Cleavage of Tag [by UV350 - Peptide-Tag vs. Tag] (%)
Record the value in %, omitting the unit from your answer.

Would you please look over these solved cases?
INSERT INTO measurements (molecule, unit_symbol, value_observed) VALUES
  ('CC[C@H](C)[C@H](NC(=O)[C@H](Cc1ccccc1)NC(=O)[C@H](Cc1ccc(O)cc1)NC(=O)[C@H](Cc1c[nH]cn1)NC(=O)[C@@H](NC(=O)[C@@H](NC(=O)[C@H](CCCCN)NC(=O)CNC(=O)[C@H](CO)NC(=O)[C@H](Cc1ccc(O)c([N+](=O)[O-])c1)NC(C)=O)[C@@H](C)O)[C@@H](C)O)C(=O)N[C@@H](CC(=O)O)C(=O)N[C@@H](CC(C)C)C(=O)N[C@@H](CC(N)=O)C(=O)N[C@@H](CCCCN)C(=O)O [Peptide 17, Ac-nitroTyr-SGKTTHYFIDLN-K-OH] (Ac-[Tyr(3-NO2)]SGKTTHYFIDLNK-OH)', '%', 100.0),
  ('CC[C@H](C)[C@H](NC(=O)[C@H](CCCCN)NC(=O)CNC(=O)[C@H](CO)NC(=O)[C@H](Cc1ccc(O)c([N+](=O)[O-])c1)NC(C)=O)C(=O)N[C@H](C(=O)N[C@@H](C)C(=O)N[C@@H](CC(C)C)C(=O)N[C@@H](CO)C(=O)N[C@@H](CC(C)C)C(=O)N[C@@H](CC(=O)O)C(=O)N[C@@H](CC(=O)O)C(=O)N[C@H](C(=O)N[C@@H](CCCCN)C(=O)O)C(C)C)C(C)C [Peptide 28, Ac-nitroTyr-SGKIVALSLDDV-K-OH] (Ac-[Tyr(3-NO2)]SGKIVALSLDDVK-OH)', '%', 100.0),
  ('CC(=O)N[C@@H](Cc1ccc(O)c([N+](=O)[O-])c1)C(=O)N[C@@H](CO)C(=O)NCC(=O)N[C@@H](CCCCN)C(=O)N[C@@H](CCCNC(=N)N)C(=O)N[C@H](C(=O)N[C@@H](C)C(=O)N[C@@H](CC(C)C)C(=O)N[C@@H](CO)C(=O)N[C@@H](CC(C)C)C(=O)N[C@@H](CC(=O)O)C(=O)N[C@@H](CC(=O)O)C(=O)N[C@H](C(=O)N[C@@H](CCCCN)C(=O)O)C(C)C)C(C)C [Peptide 35, Ac-nitroTyr-SGKRVALSLDDV-K-OH] (Ac-[Tyr(3-NO2)]SGKRVALSLDDVK-OH)', '%', 100.0);

Record request: Kusebauch 24 h, RT: Percent Cleavage of Tag [by UV350 - Peptide-Tag vs. Tag] value, item CC(=O)N[C@@H](Cc1ccc(O)c([N+](=O)[O-])c1)C(=O)N[C@@H](CO)C(=O)NCC(=O)N[C@@H](CCCCN)C(=O)N[C@@H](CC(=O)O)C(=O)N[C@H](C(=O)N[C@@H](C)C(=O)N[C@@H](CC(C)C)C(=O)N[C@@H](CO)C(=O)N[C@@H](CC(C)C)C(=O)N[C@@H](CC(=O)O)C(=O)N[C@@H](CC(=O)O)C(=O)N[C@H](C(=O)N[C@@H](CCCCN)C(=O)O)C(C)C)C(C)C [Peptide 23, Ac-nitroTyr-SGKDVALSLDDV-K-OH] (Ac-[Tyr(3-NO2)]SGKDVALSLDDVK-OH)
59.2
